# MEASURED_TARGET: human NTCP (Homo sapiens)
# Sequence (Q14973 whole entry): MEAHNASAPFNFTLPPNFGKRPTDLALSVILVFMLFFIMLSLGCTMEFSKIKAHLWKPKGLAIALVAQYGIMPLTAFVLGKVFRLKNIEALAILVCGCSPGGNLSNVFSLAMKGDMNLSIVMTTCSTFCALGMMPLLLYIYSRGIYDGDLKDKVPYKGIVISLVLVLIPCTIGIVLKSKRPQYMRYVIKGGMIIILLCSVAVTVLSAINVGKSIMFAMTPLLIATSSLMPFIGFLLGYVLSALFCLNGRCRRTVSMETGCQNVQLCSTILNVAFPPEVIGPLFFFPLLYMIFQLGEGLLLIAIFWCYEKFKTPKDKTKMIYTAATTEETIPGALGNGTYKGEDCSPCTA
# ASSAY_INFO: Screening taurocholate uptake assay (96-well, [14C]taurocholate, 10 µM drug)
# SETTINGS: screening taurocholate uptake, 10 µM drug
Structures can show the parent of a compound that is named as a salt.
Label key: Yes means B-score functional assay under 0.07; No means B-score functional assay of 0.07 or more.

Hi there! Is B-score functional assay for CSc1nc2cc(Cl)c(Oc3cccc(Cl)c3Cl)cc2[nH]1 [Triclabendazole] below 0.07, do you know?
Yes

B-score functional assay strictly < 0.07 for this compound? CN(C)CCC[C@@]1(c2ccc(F)cc2)OCc2cc(C#N)ccc21 [Escitalopram oxalate]
No

Strictly below 0.07: is that where B-score functional assay of CC(CN(C)C)C(C)(O)Cc1ccc(Cl)cc1.Cl (stereo not shown) [Clobutinol hydrochloride] sits?
Yes

Input O=C(O)CCC(=O)Nc1ccc(S(=O)(=O)Nc2nccs2)cc1 [Succinylsulfathiazole] ; condition: B-score functional assay strictly below 0.07. Does it hold?
Yes

Is B-score functional assay strictly under 0.07 for the entry OCCOCCN1CCN(C2=Nc3ccccc3Sc3ccccc32)CC1 [Quetiapine hemifumarate] ?
Yes

Problem: For the compound CCOC(=O)[N-]c1cn(N2CCOCC2)n[o+]1 [Molsidomine] , is B-score functional assay under 0.07?
No

Say whether its B-score functional assay is strictly beneath 0.07. Entry: NC(=O)c1cnccn1 [Pyrazinamide]
Yes

Is 0.07 strictly greater than the compound's reported B-score functional assay? compound: CC(C)(C)C(=O)OCOC(=O)[C@@H]1N2C(=O)[C@@H](NC(=O)[C@H](N)c3ccccc3)[C@H]2SC1(C)C [Pivampicillin]
No

Just wondering, is B-score functional assay of CC[C@H]1OC(=O)[C@H](C)[C@@H](O[C@H]2C[C@@](C)(OC)[C@@H](O)[C@H](C)O2)[C@H](C)[C@@H](O[C@@H]2O[C@H](C)C[C@H](N(C)C)[C@H]2O)[C@](C)(O)C[C@@H](C)/C(=N\OCOCCOC)[C@H](C)[C@@H](O)[C@]1(C)O [Roxithromycin] below 0.07?
No

API: query returns whether the compound falls strictly under 0.07 in B-score functional assay. Query: CC(=O)OCC(=O)[C@@]1(O)CC[C@H]2[C@@H]3CCC4=CC(=O)C=C[C@]4(C)[C@@]3(F)[C@@H](O)C[C@@]21C [Isoflupredone acetate]
No

Confirm or reject: B-score functional assay of CCCCC(CC)CN1CN(CC(CC)CCCC)CC(C)(N)C1 (stereo not shown) [Hexetidine] lies strictly below 0.07
No

Dear colleague, could you confirm whether B-score functional assay of C=CCOC(Cn1ccnc1)c1ccc(Cl)cc1Cl (stereo not shown) [Enilconazole] falls below 0.07? Thanks.
Yes

Is B-score functional assay of CCOC(=O)OC(C)OC1=C(C(=O)Nc2ccccn2)N(C)S(=O)(=O)c2ccccc21 (stereo not shown) [Ampiroxicam] strictly below 0.07?
No

Determine if Oc1cc(Cl)ccc1Oc1ccc(Cl)cc1Cl [Triclosan] shows B-score functional assay strictly lower than 0.07.
Yes

B-score functional assay strictly < 0.07 for this compound? CCOCCn1c(N2CCCN(C)CC2)nc2ccccc21 [Emedastine]
Yes

hey, is B-score functional assay for CC(=O)OC(C)C[N+](C)(C)C (stereo not shown) [Methacholine chloride] lower than 0.07 or not?
No

Confirm or reject: B-score functional assay of C#C[C@]1(O)CC[C@H]2[C@@H]3CCc4cc(OC)ccc4[C@H]3CC[C@@]21C [Ethynylestradiol 3-methyl ether] lies strictly below 0.07
Yes

Would you kindly verify if B-score functional assay of CN1CCN(C(=O)OC2c3nccnc3C(=O)N2c2ccc(Cl)cn2)CC1 (stereo not shown) [Zopiclone] is strictly less than 0.07?
Yes

I'd appreciate it if you could check whether O=C1c2ccccc2C(=O)C1c1ccccc1 [Phenindione] has B-score functional assay smaller than 0.07.
No

Given C=C1C(=O)O[C@H]2[C@H]1CC/C(C)=C/CC[C@@]1(C)O[C@@H]21 [Parthenolide] , is recorded B-score functional assay strictly lower than 0.07?
No

Strictly below 0.07: is that where B-score functional assay of CN(C)C/C=C(\c1ccc(Br)cc1)c1cccnc1.Cl.Cl.O [Zimelidine dihydrochloride monohydrate] sits?
Yes

Strictly below 0.07 in B-score functional assay? NC(=O)c1ccc[n+]([C@@H]2O[C@H](COP(=O)([O-])OP(=O)(O)OC[C@H]3O[C@@H](n4cnc5c(N)ncnc54)[C@H](O)[C@@H]3O)[C@@H](O)[C@H]2O)c1 [Nadide]
No

Here's an entry: C[n+]1ccccc1/C=N/O [Pralidoxime chloride] . Is its B-score functional assay below 0.07?
Yes

Consider CCCCOc1ccc(C(=O)CCN2CCCCC2)cc1 [Dyclonine hydrochloride] . Does its B-score functional assay lie strictly below 0.07?
Yes

A record lists CC[N+](CC)(CC)CCC(O)(c1ccccc1)C1CCCCC1.[Cl-] (stereo not shown) [Tridihexethyl chloride] . Is its B-score functional assay below 0.07?
No

Is B-score functional assay of O=C(O)Cc1ccc(-c2ccccc2)cc1 [Felbinac] strictly below 0.07?
Yes

I wonder whether CC(=O)[N-]S(=O)(=O)c1ccc(N)cc1.O.[Na+] [Sulfacetamide sodic hydrate] has B-score functional assay below 0.07. Can you tell?
Yes

B-score functional assay under 0.07? Item: CN1CCN(c2c(F)cc3c(=O)c(C(=O)O)cn4c3c2SCC4)CC1 [Rufloxacin]
Yes

B-score functional assay strictly < 0.07 for this compound? CCCc1ncc(C[n+]2ccccc2C)c(N)n1 [Amprolium hydrochloride]
Yes

API: query returns whether the compound falls strictly under 0.07 in B-score functional assay. Query: CN1CCN2c3ncccc3Cc3ccccc3C2C1 (stereo not shown) [Mirtazapine]
No

Strictly below 0.07: is that where B-score functional assay of Cc1cccc(Nc2ccccc2C(=O)O)c1C [Mefenamic acid] sits?
Yes

Dear reviewer, please state whether Cc1c(O)c(=O)n(-c2ccccc2)n1C [Antipyrine, 4-hydroxy] has B-score functional assay strictly beneath 0.07.
Yes

Lab note: B-score functional assay threshold 0.07. Does this compound come in strictly under it? CN1CCC(=C2c3ccccc3Sc3ccccc32)CC1 [Pimethixene maleate]
Yes

Confirm or reject: B-score functional assay of OC(CCN1CCCCC1)(c1ccccc1)C1CC2C=CC1C2 (stereo not shown) [Biperiden hydrochloride] lies strictly below 0.07
Yes
